- methodDescription: in vitro
- conditionLabel: human, pH 7.4, Papp (10^−6 cm/s) R2, apical dosing, DPBS pH 7.4, 120 min, 37° C.; diphenhydramine 100 μM, atenolol 100 μM, caffeine 50 μM co-dosed; replicate R2
reportedEndpoint: Papp A→B at 120 min
Record the result as number plus unit.

Ask: Entry under review: `Cn1c(=O)c2c(ncn2C)n(C)c1=O` . Reported Papp A→B at 120 min?
Result: 28.2 ×10⁻⁶ cm/s

----------
- methodDescription: in vitro
- conditionLabel: human, pH 7.4, Papp (10^−6 cm/s) R3, apical dosing, DPBS pH 7.4, 120 min, 37° C.; diphenhydramine 100 μM, atenolol 100 μM, caffeine 50 μM co-dosed; replicate R3
reportedEndpoint: Papp A→B at 120 min (×10⁻⁶ cm/s)
Express your answer in ×10⁻⁶ cm/s, writing the number without its unit.

Ask: Entry under review: `Cn1c(=O)c2c(ncn2C)n(C)c1=O` . Reported Papp A→B at 120 min?
Result: 28.2
